Would you mind telling me the reported Enzyme inhibitory activity (500 nM, %) ERK2 of each entry?
# measured-on: ERK2 (Homo sapiens)
# Sequence (P28482 whole entry): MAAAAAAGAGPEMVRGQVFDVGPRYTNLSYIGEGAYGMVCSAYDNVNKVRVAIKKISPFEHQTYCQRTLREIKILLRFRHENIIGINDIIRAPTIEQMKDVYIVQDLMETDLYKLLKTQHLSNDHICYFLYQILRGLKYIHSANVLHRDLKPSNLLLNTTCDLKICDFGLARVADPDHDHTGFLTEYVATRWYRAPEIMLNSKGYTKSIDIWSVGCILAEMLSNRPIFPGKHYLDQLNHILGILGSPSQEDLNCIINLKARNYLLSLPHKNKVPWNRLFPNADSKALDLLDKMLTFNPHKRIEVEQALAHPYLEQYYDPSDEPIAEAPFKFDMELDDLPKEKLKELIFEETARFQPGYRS
# measurement-notes: ADP-Glo kinase assay
# Type: biochemical
# condition-label: 500 nM

Observe how each entry below is paired with its result.
[[record]]
molecule = "CCc1cccc(NC(=O)c2cc(-c3nc(Nc4ccnn4C)ncc3Cl)cs2)c1"
result = "89.45 ± 1.55%"

[[record]]
molecule = "Cn1nccc1Nc1ncc(Cl)c(-c2csc(C(=O)NN3CCOCC3)c2)n1"
result = "99.00 ± 0.56%"

[[record]]
molecule = "Cc1cccc(NC(=O)c2cc(-c3nc(Nc4ccnn4C)ncc3Cl)cs2)c1"
result = "82.11 ±0.61%"

[[record]]
molecule = "CN(C)Cc1cccc(Nc2ncc(Cl)c(-c3csc(C(=O)NN4CCN(C)CC4)c3)n2)c1 [18n]"
result = "91.03 ± 1.23%"


Value sought for every listed molecule: Enzyme inhibitory activity (500 nM, %) ERK2.
1. CN(C)Cc1cccc(Nc2ncc(Cl)c(-c3csc(C(=O)Nc4ccnn4C)c3)n2)c1 [18k]
2. Cn1nccc1Nc1ncc(Cl)c(-c2csc(C(=O)NC3CCSCC3)c2)n1

RESULT:
1. 43.61 ± 1.45%
2. 91.52 ± 0.31%

====

# measurement-notes: Caco-2 bidirectional transport
# Format: in vitro ADME
# condition-label: human; Caco-2, 60 min; read-out: BL→AP Papp
# Protocol: Caco-2 cells were inoculated in a Transwell chamber with a pore size of 0.4 μm, and cultured for 15–20 days, the formation of the monolayer cell model was verified by the permeability determination of fluorescein sodium. Then a certain concentration of culture-medium containing candidate compounds was added to the upper and lower sides of different groups of cells, and the culture-medium at the corresponding position was absorbed after the specified time. […]
property-name: Papp B→A at 60 min (×10⁻⁶ cm/s)
One number for each entry, in ×10⁻⁶ cm/s.

Please fill in: Papp B→A at 60 min reported for `CN(C)Cc1cccc(Nc2ncc(Cl)c(-c3csc(C(=O)NN4CCOCC4)c3)n2)c1` = 0.117

====

# Test system: MDA-MB-231 cells
# measurement-notes: MTT cell viability assay
# Assay type: cell-based
# condition-label: 10 μM
Criterion: Anti-proliferative activity (10 μM, %) MDA-MB-231 strictly under 20%. Met: fulfilled. Not met: not fulfilled.

Take a look at these entries with their results.
[[record]]
molecule = "Cc1cc(NC(=O)c2cc(-c3nc(Nc4ccnn4C)ncc3Cl)cs2)ccn1"
label = "fulfilled"

[[record]]
molecule = "Cn1nccc1Nc1ncc(Cl)c(-c2csc(C(=O)NN3CCOCC3)c2)n1"
label = "fulfilled"

[[record]]
molecule = "CCc1cccc(NC(=O)c2cc(-c3nc(Nc4ccnn4C)ncc3Cl)cs2)c1"
label = "fulfilled"

[[record]]
molecule = "Cn1nccc1Nc1ncc(Cl)c(-c2csc(C(=O)Nc3ccccc3)c2)n1"
label = "fulfilled"


QUERY: A record lists CN(C)Cc1cccc(Nc2ncc(Cl)c(-c3csc(C(=O)Nc4ccncn4)c3)n2)c1 [18i] . Is its Anti-proliferative activity (10 μM, %) MDA-MB-231 below 20%?
RESULT: not fulfilled

====

# Tested on: MDA-MB-231 cells
# measurement-notes: MTT cell viability assay
# Format: cell-based
# condition-label: 10 μM
property-name: Anti-proliferative activity (10 μM, %) MDA-MB-231
Answers are plain numbers, in %.

Observe how each entry below is paired with its result.
[[record]]
molecule = "CC(C)Oc1ccc(NC(=O)c2cc(-c3nc(Nc4ccnn4C)ncc3Cl)cs2)cc1 [6ae]"
result_number = 15.96

[[record]]
molecule = "COc1ccc(NC(=O)c2cc(-c3nc(Nc4ccccc4)ncc3Cl)cs2)cc1 [9e]"
result_number = 23.33

[[record]]
molecule = "CN(C)Cc1cccc(Nc2ncc(Cl)c(-c3csc(C(=O)NN4CCOCC4)c3)n2)c1 [SKLB-D18]"
result_number = 93.44

[[record]]
molecule = "Cn1nccc1Nc1ncc(Cl)c(-c2csc(C(=O)Nc3cccc(Cl)c3)c2)n1 [6k]"
result_number = 39.12

[[record]]
molecule = "Cn1nccc1Nc1ncc(Cl)c(-c2csc(C(=O)N[C@H]3CC[C@H](O)CC3)c2)n1 [6f]"
result_number = 11.85

[[record]]
molecule = "CN(C)Cc1cccc(Nc2ncc(Cl)c(-c3csc(C(=O)Nc4cccc(N(C)C)c4)c3)n2)c1 [18d]"
result_number = 85.64

[[record]]
molecule = "Cn1nccc1Nc1ncc(Cl)c(-c2csc(C(=O)NCc3cnccn3)c2)n1 [6h]"
result_number = 23.65


Let's switch to this molecule now.
Measured Anti-proliferative activity (10 μM, %) MDA-MB-231 (MDA-MB-231 cells), entry Cn1nccc1Nc1ncc(Cl)c(-c2csc(C(=O)Nc3cccc(F)c3)c2)n1 [6j] : 25.73

====

# measured-on: UniProt P28482
# measurement-notes: ADP-Glo kinase assay
# Format: biochemical
# condition-label: 500 nM
property-name: Enzyme inhibitory activity (500 nM, %) ERK2

Value sought for every listed compound: Enzyme inhibitory activity (500 nM, %) ERK2.
1. Cn1nccc1Nc1ncc(Cl)c(-c2csc(C(=O)Nc3cccc(Br)c3)c2)n1 [6l]
2. CN(C)Cc1cccc(Nc2ncc(Cl)c(-c3csc(C(=O)Nc4ccncn4)c3)n2)c1 [18i]
3. COc1ccc(NC(=O)c2cc(-c3nc(Nc4c(C)nn(C)c4C)ncc3Cl)cs2)cc1 [9d]
4. CC(C)N1CCN(C(=O)c2cc(-c3nc(Nc4ccnn4C)ncc3Cl)cs2)CC1 [6c]
5. Cn1nccc1Nc1ncc(Cl)c(-c2csc(C(=O)Nc3ccc(C(F)(F)F)cc3)c2)n1 [6y]
6. CN1CCN(C(=O)c2cc(-c3nc(Nc4ccnn4C)ncc3Cl)cs2)CC1 [6b]
7. Cn1nccc1Nc1ncc(Cl)c(-c2csc(C(=O)Nc3cccc(OC(F)(F)F)c3)c2)n1 [6n]

RESULT:
46.65 ± 0.32%
-1.29 ± 0.02%
43.22 ± 0.23%
14.38 ± 0.24%
51.08 ±2.31%
39.03 ± 2.13%
66.54 ± 2.11%

Value sought for every listed compound: Enzyme inhibitory activity (500 nM, %) ERK2.
1. Cn1nccc1Nc1ncc(Cl)c(-c2csc(C(=O)N[C@H]3CC[C@H](O)CC3)c2)n1 [6f]
2. COc1ccc(NC(=O)c2cc(-c3nc(Nc4cccc(N(C)C)c4)ncc3Cl)cs2)cc1 [9h]

RESULT:
1. 89.54 ± 2.31%
2. 78.90 ± 2.31%

====

# measurement-notes: Pharmacokinetic study
# Assay type: in vivo
# condition-label: rat, plasma, po; SD rats, p.o. 10 mg/kg
property-name: half-life
Record the result as number plus unit.

Please fill in: half-life reported for CN(C)Cc1cccc(Nc2ncc(Cl)c(-c3csc(C(=O)NN4CCOCC4)c3)n2)c1 [SKLB-D18] = 3.71 h

====

# measurement-notes: Liver microsome metabolic stability
# Format: in vitro ADME
# condition-label: human liver microsomes
# Protocol: An appropriate amount of SD rat and human liver microsomal solution was incubated at 37 °C with a specified concentration of candidate compounds for 5 min, and then NADPH reaction system was added to initiate metabolic reaction. […] After acetonitrile was dissolved, the supernatant solution was centrifugated, and the remaining compounds were quantified by LC-MS to evaluate the metabolic stability of liver microsomes.
property-name: microsomal CLint (µL/min/mg)
Numbers only, in µL/min/mg.

Please fill in: microsomal CLint reported for `CN(C)Cc1cccc(Nc2ncc(Cl)c(-c3csc(C(=O)NN4CCOCC4)c3)n2)c1` = 15.1

====

# measurement-notes: Liver microsome metabolic stability
# Type: in vitro ADME
# condition-label: human liver microsomes
property-name: half-life (h)
Answers are plain numbers, in h.

Please fill in: half-life reported for CN(C)Cc1cccc(Nc2ncc(Cl)c(-c3csc(C(=O)NN4CCOCC4)c3)n2)c1 [SKLB-D18] = 1.53

====

Would you mind telling me the reported Enzyme inhibitory activity (500 nM, %) ERK5 of each entry?
# measured-on: UniProt Q13164
# Sequence (Q13164 whole entry): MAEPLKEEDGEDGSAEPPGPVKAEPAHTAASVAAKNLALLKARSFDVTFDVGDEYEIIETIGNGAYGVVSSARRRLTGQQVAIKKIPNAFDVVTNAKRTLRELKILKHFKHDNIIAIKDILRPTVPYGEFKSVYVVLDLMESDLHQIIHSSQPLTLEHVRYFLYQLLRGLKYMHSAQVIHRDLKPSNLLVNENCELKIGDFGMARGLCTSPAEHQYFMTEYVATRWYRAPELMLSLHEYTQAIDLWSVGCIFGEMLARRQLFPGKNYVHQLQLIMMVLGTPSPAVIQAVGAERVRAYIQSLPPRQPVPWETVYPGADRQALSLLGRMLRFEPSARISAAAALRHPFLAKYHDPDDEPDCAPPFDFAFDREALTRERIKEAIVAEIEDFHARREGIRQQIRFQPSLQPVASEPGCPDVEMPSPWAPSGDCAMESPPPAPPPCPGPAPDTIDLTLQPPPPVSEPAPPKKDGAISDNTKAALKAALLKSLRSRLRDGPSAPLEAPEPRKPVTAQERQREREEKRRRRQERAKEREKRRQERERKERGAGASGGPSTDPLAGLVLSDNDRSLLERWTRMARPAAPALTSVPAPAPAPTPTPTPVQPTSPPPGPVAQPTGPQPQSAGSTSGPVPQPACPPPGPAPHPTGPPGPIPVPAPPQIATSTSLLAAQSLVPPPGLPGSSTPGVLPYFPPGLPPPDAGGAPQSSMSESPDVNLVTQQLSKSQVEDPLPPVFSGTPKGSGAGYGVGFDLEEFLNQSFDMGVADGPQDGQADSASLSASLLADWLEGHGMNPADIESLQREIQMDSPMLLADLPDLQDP
# measurement-notes: ADP-Glo kinase assay
# Type: biochemical
# condition-label: 500 nM
One number for each entry, in %.

[[record]]
molecule = "CN1CCN(C(=O)c2cc(-c3nc(Nc4ccnn4C)ncc3Cl)cs2)CC1"
result_number = 28.02


Value sought for every listed molecule: Enzyme inhibitory activity (500 nM, %) ERK5.
1. Cn1nccc1Nc1ncc(Cl)c(-c2csc(C(=O)NN3CCOCC3)c2)n1
2. CN(C)Cc1cccc(Nc2ncc(Cl)c(-c3csc(C(=O)Nc4ccnn4C)c3)n2)c1 [18k]
3. Cn1nccc1Nc1ncc(Cl)c(-c2csc(C(=O)Nc3cccc(N)c3)c2)n1
4. Cn1nccc1Nc1ncc(Cl)c(-c2csc(C(=O)NC3CCSCC3)c2)n1
5. Cn1nccc1Nc1ncc(Cl)c(-c2csc(C(=O)Nc3cccc(Br)c3)c2)n1
6. CC(C)N1CCN(C(=O)c2cc(-c3nc(Nc4ccnn4C)ncc3Cl)cs2)CC1

RESULT:
70.61
86.64
77.49
34.57
32.34
19.12

Value sought for every listed molecule: Enzyme inhibitory activity (500 nM, %) ERK5.
1. CSc1ccc(NC(=O)c2cc(-c3nc(Nc4ccnn4C)ncc3Cl)cs2)cc1
2. Cc1cccc(NC(=O)c2cc(-c3nc(Nc4ccnn4C)ncc3Cl)cs2)c1

RESULT:
[69.90, 65.90]
